- assay-target: Human immunodeficiency virus type 1 protease (Human immunodeficiency virus 1, UniProt Q72874, R8Q)
- protocol-text: Inhibition of HIV-1 protease R8Q mutant using Abz-Thr-Ile-Nle-p-nitro-Phe-Gln-Arg-NH2 as substrate incubated for 5 mins prior to substrate addition measured for 5 mins by fluorescence assay
observable: pKi
pKi here: minus log base 10 of the concentration, concentration in moles per litre.

Look at this compound and give its reported pKi. `COc1ccc(S(=O)(=O)N(CC(C)C)C[C@@H](O)[C@H](Cc2ccccc2)NC(=O)O[C@H]2CO[C@H]3O[C@@H]4OCC[C@@H]4[C@H]32)cc1`
8.92

---

- assay-target: Human immunodeficiency virus type 1 protease (Human immunodeficiency virus 1, UniProt Q72874, V82A)
- protocol-text: Inhibition of HIV-1 protease V82A mutant using Abz-Thr-Ile-Nle-p-nitro-Phe-Gln-Arg-NH2 as substrate incubated for 5 mins prior to substrate addition measured for 5 mins by fluorescence assay
observable: pKi
pKi here: minus log base 10 of the concentration, concentration in moles per litre.

Look at this compound and give its reported pKi. `COc1ccc(S(=O)(=O)N(CC(C)C)C[C@@H](O)[C@H](Cc2ccccc2)NC(=O)O[C@H]2CO[C@H]3O[C@@H]4OCC[C@@H]4[C@H]32)cc1`
8.49

---

- assay-target: Human immunodeficiency virus type 1 protease (Human immunodeficiency virus 1, UniProt Q72874, I50V)
- protocol-text: Inhibition of HIV-1 protease I50V mutant using Abz-Thr-Ile-Nle-p-nitro-Phe-Gln-Arg-NH2 as substrate incubated for 5 mins prior to substrate addition measured for 5 mins by fluorescence assay
observable: Ki (nM)
Number in nM, nothing else.

Look at this molecule and give its reported Ki. `COc1ccc(S(=O)(=O)N(CC(C)C)C[C@@H](O)[C@H](Cc2ccccc2)NC(=O)O[C@H]2CO[C@H]3O[C@@H]4OCC[C@@H]4[C@H]32)cc1`
30.9

---

- assay-target: Human immunodeficiency virus type 1 protease (Human immunodeficiency virus 1, UniProt Q72874, I54M)
- protocol-text: Inhibition of HIV-1 protease I54M mutant using Abz-Thr-Ile-Nle-p-nitro-Phe-Gln-Arg-NH2 as substrate incubated for 5 mins prior to substrate addition measured for 5 mins by fluorescence assay
observable: pKi
pKi here: minus log base 10 of the concentration, concentration in moles per litre.

Look at this molecule and give its reported pKi. `COc1ccc(S(=O)(=O)N(CC(C)C)C[C@@H](O)[C@H](Cc2ccccc2)NC(=O)O[C@H]2CO[C@H]3O[C@@H]4OCC[C@@H]4[C@H]32)cc1`
8.46
